Molecular target: T1, human BCMA on NCI-H929 cells (human, UniProt Q02223 1-184)
T1 construct: BCMA-positive human multiple myeloma cell line NCI-H929 (ATCC CRL-9068); also called B-cell maturation antigen; CD269
T1 sequence: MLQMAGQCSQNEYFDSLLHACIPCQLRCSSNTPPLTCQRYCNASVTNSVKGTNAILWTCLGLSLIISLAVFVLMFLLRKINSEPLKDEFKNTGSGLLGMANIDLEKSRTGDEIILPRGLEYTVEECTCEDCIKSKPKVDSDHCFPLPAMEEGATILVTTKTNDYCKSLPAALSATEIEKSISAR
Test: flow cytometry on NCI-H929 cells, yeast-expressed antibody
reported.property: EC50 (nM)
Only the number, expressed in nM, is required.

[
  {
    "binder": "ADI-34861 (antibody, V domains shown, Yeast-expressed fully human antibody purified on protein A) VH: QLQLQESGPGLVKPSETLSLTCTVSGGSISSSSYYWGWIRQPPGKGLEWIGSISYSGSTYYNPSLKSRVTISVDTSKNQFSLKLSSVTAADTAVYYCARDRGDTILDVWGQGTMVTVSS VL: DIQMTQSPSSLSASVGDRVTITCRASQSISRYLNWYQQKPGKAPKLLIYAASSLQSGVPSRFSGSGSGTDFTLTISSLQPEDFATYYCQQKYFDITFGGGTKVEIK",
    "EC50 (nM)": 65.1
  }
]

Looking up ADI-34849 (antibody, V domains shown, Yeast-expressed fully human antibody purified on protein A) VH: EVQLVESGGGLVQPGRSLRLSCAASGFTFDDYAMHWVRQAPGKGLEWVSGISWSSGSIGYADSVKGRFTISRDNAKNSLYLQMNSLRAEDTAVYYCAKDSPRRDSFGSIAFDIWGQGTMVTVSS VL: EIVLTQSPATLSLSPGERATLSCRASQSVSSYLAWYQQKPGQAPRLLIYDASKRATGIPARFSGSGSGTDFTLTISSLEPEDFAVYYCQQASALPLTFGGGTKVEIK , I found its EC50 recorded as 9.11
